- assay-comment: Pharmacokinetics after oral capsules (sCT plus Dmt-DALDA with citric acid and lauroyl carnitine), non-enteric coated or enteric coated, in fasted beagle dogs (plasma; ELISA for sCT, HPLC-MS for Dmt-DALDA)
- Type: in vivo
- applied-conditions: beagle, dog, plasma, oral, Enteric Capsule, Avg (n = 3)
- Description: A second series of tests was carried out, as noted above, using beagle dogs. […] The plasma samples were subsequently analyzed for sCT by a direct ELISA, and for Dmt-DALDA by HPLC-mass spectrometry performed as set forth in Wan, H. and Desiderio, D., Quantitation of [DMT^1] […]
measurement-label: Tmax (h)

> print(dat)
                                   compound  unit.string  reported
1  Cc1cc(O)cc(C)c1C[C@H](N)C(=O)N[C@H](CCCNC(=N)N)C(=O)N[C@@H](Cc1ccccc1)C(=O)N[C@@H](CCCCN)C(N)=O [Dmt-DALDA]            h      1.67

---

- assay-comment: Pharmacokinetics after oral capsules (sCT plus Dmt-DALDA with citric acid and lauroyl carnitine), non-enteric coated or enteric coated, in fasted beagle dogs (plasma; ELISA for sCT, HPLC-MS for Dmt-DALDA)
- Type: in vivo
- applied-conditions: beagle, dog, plasma, oral, Non-Enteric Capsule, Dog 4
measurement-label: Tmax (min)

> print(dat)
                              line.notation  reported
1  Cc1cc(O)cc(C)c1C[C@H](N)C(=O)N[C@H](CCCNC(=N)N)C(=O)N[C@@H](Cc1ccccc1)C(=O)N[C@@H](CCCCN)C(N)=O        45

---

- assay-comment: Pharmacokinetics after oral capsules (sCT plus Dmt-DALDA with citric acid and lauroyl carnitine), non-enteric coated or enteric coated, in fasted beagle dogs (plasma; ELISA for sCT, HPLC-MS for Dmt-DALDA)
- Format: in vivo
- applied-conditions: beagle, dog, plasma, oral, Non-Enteric Capsule, Dog 1
measurement-label: Tmax (min)

> print(dat)
                              line.notation  unit.string  reported
1  Cc1cc(O)cc(C)c1C[C@H](N)C(=O)N[C@H](CCCNC(=N)N)C(=O)N[C@@H](Cc1ccccc1)C(=O)N[C@@H](CCCCN)C(N)=O          min        45

---

- assay-comment: Pharmacokinetics after oral capsules (sCT plus Dmt-DALDA with citric acid and lauroyl carnitine), non-enteric coated or enteric coated, in fasted beagle dogs (plasma; ELISA for sCT, HPLC-MS for Dmt-DALDA)
- Assay type: in vivo
- applied-conditions: beagle, dog, plasma, oral, Non-Enteric Capsule, Dog 2; normalized to a 1 mg dose
- Experimental: A second series of tests was carried out, as noted above, using beagle dogs. […] The plasma samples were subsequently analyzed for sCT by a direct ELISA, and for Dmt-DALDA by HPLC-mass spectrometry performed as set forth in Wan, H. and Desiderio, D., Quantitation of [DMT^1] […]
measurement-label: Cmax (ng/mL)

> print(dat)
                              line.notation  reported
1  Cc1cc(O)cc(C)c1C[C@H](N)C(=O)N[C@H](CCCNC(=N)N)C(=O)N[C@@H](Cc1ccccc1)C(=O)N[C@@H](CCCCN)C(N)=O      6.47
